METHOD: In vivo pharmacokinetics in rats, gavage (PO)
APPLIED_CONDITIONS: male, SD, rat, plasma, 4 mg/kg
MEASURED_METRIC: bioavailability (%)

>>> print(df.to_string())
                                   compound  measured_metric  result_number
0  CC(=O)Nc1ccc(-c2ccc3ncc4c(c3n2)N(c2cccc(C(F)(F)F)c2)C(=O)N(C)C4)cn1  bioavailability           11.6
1  CN1Cc2cnc3ccc(-c4cnc(N)nc4)nc3c2N(c2cccc(C(F)(F)F)c2)C1=O  bioavailability           26.3
2  COc1ccc(-c2ccc3ncc4c(c3c2)n(-c2ccc(N3CCNCC3)c(C(F)(F)F)c2)c(=O)n4C)cn1 [BGT-226, reference compound]  bioavailability             28
3  Cn1c(=O)n(-c2ccc(C(C)(C)C#N)cc2)c2c3cc(-c4cnc5ccccc5c4)ccc3ncc21 [BEZ-235, reference compound]  bioavailability           77.4
4  CN1Cc2cnc3ccc(-c4ccc(N)nc4)nc3c2N(c2cccc(C(F)(F)F)c2)C1=O  bioavailability           40.4
